Test: Oral bioavailability in BALB/c mouse at 10 mg/kg by LC-MS/MS analysis
Format: ADME, organism-based
Settings: in vivo

Mol	bioavailability, %
CC(C)CN1C[C@H](Cc2ccc(Cl)cc2)N(C2CCN(c3n[nH]c(N)n3)CC2)C[C@@H]1C	61.2

---

Test: Cmax in BALB/c mouse at 10 mg/kg, po by LC-MS/MS analysis
Format: ADME, organism-based
Parameters: dose 10 mg/kg, route oral
Settings: in vivo

Mol	Unit Of Measure	Cmax
CC(C)CN1C[C@H](Cc2ccc(Cl)cc2)N(C2CCN(c3n[nH]c(N)n3)CC2)C[C@@H]1C	ng/mL	840

---

Assay: Half-life in BALB/c mouse at 10 mg/kg, po by LC-MS/MS analysis
Type: ADME, organism-based
Conditions: in vivo
Endpoint Name: half-life (h)

Mol	Endpoint Name	Observed Measurement
CC(C)CN1C[C@H](Cc2ccc(Cl)cc2)N(C2CCN(c3n[nH]c(N)n3)CC2)C[C@@H]1C	half-life	2.83

---

Experiment: Tmax in BALB/c mouse at 10 mg/kg, po by LC-MS/MS analysis
Assay type: ADME, organism-based
Conditions: in vivo
Endpoint Name: Tmax (min)

Mol	Unit Of Measure	Observed Measurement
CC(C)CN1C[C@H](Cc2ccc(Cl)cc2)N(C2CCN(c3n[nH]c(N)n3)CC2)C[C@@H]1C	min	30

---

Assay: Volume of distribution at steady state in BALB/c mouse at 3 mg/kg, iv administered as bolus dose by LC-MS/MS analysis
Format: ADME, organism-based
Conditions: in vivo, read-out: Vdss
Endpoint Name: Vd

Mol	Observed Measurement
CC(C)CN1C[C@H](Cc2ccc(Cl)cc2)N(C2CCN(c3n[nH]c(N)n3)CC2)C[C@@H]1C	4.6 L/kg

---

pIC50: −log10 of the molar value.
// Chitotriosidase-1 (Mus musculus, UniProt Q9D7Q1) pIC50 records

Mol	Target Desc	pIC50
CC(C)C[C@H]1CN(C2CCN(c3nnc(N)[nH]3)CC2)[C@@H](Cc2ccc(Cl)cc2)CN1C	Chitotriosidase-1 (Mus musculus, UniProt Q9D7Q1)	7.02
C[C@H]1CN(C2CCN(c3nnc(N)[nH]3)CC2)[C@@H](Cc2ccc(Cl)cc2)CN1C	Chitotriosidase-1 (Mus musculus, UniProt Q9D7Q1)	6.73
CC(C)C[C@H]1CN(C2CCN(c3n[nH]c(N)n3)CC2)[C@@H](Cc2ccc(Cl)cc2)CN1CC(C)C	Chitotriosidase-1 (Mus musculus, UniProt Q9D7Q1)	7.39
COC(=O)CN1C[C@H](Cc2ccc(Cl)cc2)N(C2CCN(c3n[nH]c(N)n3)CC2)C[C@@H]1C	Chitotriosidase-1 (Mus musculus, UniProt Q9D7Q1)	7.54
